# Tested on: normal primary NK cells, pool 2 (3 donors) (IL-2 2.5 ng/mL);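 further: normalised to DMSO-only wells as negative and benzethonium chloride as positive control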
# experimentNotes: percent inhibition of viability; higher = more inhibition
# testConditions: 72 h; 100 nM
Please go through the items and note down their percent inhibition of viability.
Entry rule: numbers only, all in %.

Return reported percent inhibition of viability; argument: NC1(c2ccc(-c3nc4ccn5c(=O)[nH]nc5c4cc3-c3ccccc3)cc2)CCC1 [MK-2206] (max concentration tested 1000 nM)
12.9

Now give it for Cn1c(=O)n(-c2ccc(C(C)(C)C#N)cc2)c2c3cc(-c4cnc5ccccc5c4)ccc3ncc21 [Dactolisib] (max concentration tested 1000 nM) too.
37.6

Now give it for CN(N=O)C(=O)N[C@@H](C=O)[C@@H](O)[C@H](O)[C@H](O)CO [Streptozocin] (max concentration tested 10000 nM) too.
1.68

Now give it for CC/C(=C(\c1ccc(O)cc1)c1ccc(OCCN(C)C)cc1)c1ccccc1 [4-hydroxytamoxifen] (max concentration tested 10000 nM) too.
4.61

Now give it for CCC1(c2ccc(N)cc2)CCC(=O)NC1=O (configuration not stated) [Aminoglutethimide] (max concentration tested 10000 nM) too.
0.19

Now give it for CC(C)NC[C@@H](C(=O)N1CCN(c2ncnc3c2[C@H](C)C[C@H]3O)CC1)c1ccc(Cl)cc1 [Ipatasertib] (max concentration tested 10000 nM) too.
0.07

Now give it for CC1(C)NC(=O)N(c2ccc([N+](=O)[O-])c(C(F)(F)F)c2)C1=O [Nilutamide] (max concentration tested 10000 nM) too.
0.2

Now give it for COc1cc(OC)c(/C=C/S(=O)(=O)Cc2ccc(OC)c(NCC(=O)O)c2)c(OC)c1 [Rigosertib] (max concentration tested 10000 nM) too.
-9.12

Now give it for C[C@]12CC[C@@H]3c4ccc(O)cc4C[C@@H](CCCCCCCCC[S+]([O-])CCCC(F)(F)C(F)(F)F)[C@H]3[C@@H]1CC[C@@H]2O (some centres not stated) [Fulvestrant] (max concentration tested 1000 nM) too.
2.49

Now give it for CCCCCCCCc1ccc(CCC(N)(CO)CO)cc1 [Fingolimod] (max concentration tested 10000 nM) too.
4.8

Now give it for CN(C)C(=N)NC(=N)N [Metformin] (max concentration tested 100000 nM) too.
0.32

Now give it for O=C(CCCCCCC(=O)Nc1ccc([C@H]2O[C@@H](CSc3nc(-c4ccccc4)c(-c4ccccc4)o3)C[C@@H](c3ccc(CO)cc3)O2)cc1)NO [Tubacin] (max concentration tested 10000 nM) too.
0.44
